Assay: Confirmatory Assay for General miRNAs Modulators and/or Inhibitors/Activators of miR-21
Settings: HeLa miR-21 FLuc reporter, luminescence, 48 h; series mostly up to 38.3 µM
Records with an inconclusive call do not appear. Activity calls are given as the source filed them. Calls follow the shape of the dose curve; as a rule, active = well fitted inhibition curve with a large enough effect; inconclusive = small, poorly fitted or top-dose-only effect, or effect the other way; inactive = no such curve, though single readings can be large or run the other way.

[
  {
    "input smiles": "Cc1nnc(SCc2nc(N)nc(Nc3ccccc3)n2)s1",
    "Potency": "22500 nM (active)"
  },
  {
    "input smiles": "COc1ccccc1NC(=O)c1sc2nc3c(cc2c1N)CN(Cc1ccccc1)CC3",
    "Potency": "inactive"
  },
  {
    "input smiles": "N#Cc1cc2cc3c(cc2nc1SCC(=O)N1CCOCC1)OCO3",
    "Potency": "1130 nM (active)"
  },
  {
    "input smiles": "O=C(COc1ccccc1F)Nc1ccc(-c2nc3ccccc3s2)cc1",
    "Potency": "1260 nM (active)"
  },
  {
    "input smiles": "Cc1cc(C)c2c(N)c(C(=O)Nc3ccccc3F)sc2n1",
    "Potency": "1420 nM (active)"
  },
  {
    "input smiles": "COc1cccc(-n2nnc(-c3nc(-c4cccs4)no3)c2N)c1",
    "Potency": "895 nM (active)"
  },
  {
    "input smiles": "Cc1cccc(-c2nnc(SCC(=O)Nc3ccc(C)c(C)c3)o2)c1",
    "Potency": "3180 nM (active)"
  },
  {
    "input smiles": "CCc1cccc(-n2nnc(-c3nsc(NC(=O)c4cccs4)n3)c2C)c1",
    "Potency": "10000 nM (active)"
  },
  {
    "input smiles": "Cc1ccc(NC(=O)Cn2nnc(-c3nc(-c4ccc(Cl)cc4)no3)c2N)cc1C",
    "Potency": "inactive"
  },
  {
    "input smiles": "CCc1ccc(-n2nnc(-c3nc(-c4cccs4)no3)c2N)cc1",
    "Potency": "3180 nM (active)"
  }
]
